Could you please report measured pEC50 for the items listed next?
TEST TARGET: UniProt:P41145
ASSAY EXPLANATION: Opioid receptor function test (Lance Ultra cAMP kit, agonist activity)
CONDITION PARAMETERS: CHO cells expressing human κ opioid receptors, 10 μM forskolin, 30 minutes
Hey, just a heads up that pEC50 is the negative log base 10 of the concentration in molar.

Problem: Tell me reported pEC50 for Oc1ccc2c(c1)[C@@]13CCN(CCN4CCCCC4)CC[C@@]1(O)[C@@H](C2)N(CC1CC1)CC3 [Example 130] , tested with UniProt:P41145.
Solution: 9.44

Problem: Tell me reported pEC50 for Cc1cc(CC(=O)N2CC[C@]34CCN(CC5CC5)[C@H](Cc5ccc(O)cc53)[C@]4(O)CC2)no1 [Example 185] , tested with UniProt:P41145.
Solution: 9.41

Problem: Tell me reported pEC50 for Cc1cc(CC(=O)N2CC[C@]34CCN(CC5CC5)[C@H](Cc5cc(C)c(O)cc53)[C@]4(O)CC2)ns1 [Example 323] , tested with UniProt:P41145.
Solution: 9.74

Problem: Tell me reported pEC50 for Cc1cnn(CCN2CC[C@]34CCN(CC5(O)CC5)[C@H](Cc5ccc(O)cc53)[C@]4(O)CC2)c1 [Example 225] , tested with UniProt:P41145.
Solution: 9.96

---

TEST TARGET: human κ opioid receptors (Homo sapiens)
Sequence (P41145 whole entry): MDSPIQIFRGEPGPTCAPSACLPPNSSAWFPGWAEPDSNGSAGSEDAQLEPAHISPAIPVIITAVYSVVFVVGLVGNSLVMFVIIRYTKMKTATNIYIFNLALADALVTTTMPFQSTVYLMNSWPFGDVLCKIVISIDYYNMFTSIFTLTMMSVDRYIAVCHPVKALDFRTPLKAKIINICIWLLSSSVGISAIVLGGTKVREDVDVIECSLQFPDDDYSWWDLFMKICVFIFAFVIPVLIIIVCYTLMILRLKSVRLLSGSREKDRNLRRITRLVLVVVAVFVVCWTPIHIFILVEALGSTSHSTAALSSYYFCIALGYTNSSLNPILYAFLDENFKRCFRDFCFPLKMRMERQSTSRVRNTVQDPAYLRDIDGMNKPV
ASSAY EXPLANATION: Opioid receptor function test (Lance Ultra cAMP kit, agonist activity)
CONDITION PARAMETERS: CHO cells expressing human κ opioid receptors, 10 μM forskolin, 30 minutes
Could you please report measured EC50 for the items listed next?

Problem: Which value of EC50 has been reported for `CN(C)CC(=O)N1CC[C@]23CCN(CC4CC4)[C@H](Cc4ccc(O)cc42)[C@]3(O)CC1` in the records?
Solution: 0.59 nM

Problem: Which value of EC50 has been reported for Cc1cnn(C2CC(N3CC[C@]45CCN(CC6CC6)[C@H](Cc6ccc(O)cc64)[C@]5(O)CC3)C2)c1 (single isomer, unassigned) [Example 227 (I)] in the records?
Solution: 0.015 nM

Problem: Which value of EC50 has been reported for CCC1C[C@@]2(O)[C@H]3Cc4ccc(O)cc4[C@]2(CCN1C(=O)Cc1ccccn1)CCN3CC1CC1 (stereo partly shown) in the records?
Solution: 0.12 nM

Problem: Which value of EC50 has been reported for `NC(=O)c1ccc2c(c1)[C@@]13CCN(C(=O)Cn4cc(C(F)(F)F)cn4)CC[C@@]1(O)[C@@H](C2)N(CC1CC1)CC3` in the records?
Solution: 0.074 nM

Problem: Which value of EC50 has been reported for `Cc1cnn(CCCN2CC[C@]34CCN(CC5CC5)[C@H](Cc5ccc(O)cc53)[C@]4(O)CC2)c1` in the records?
Solution: 0.066 nM

Problem: Which value of EC50 has been reported for `Oc1ccc2c(c1)[C@@]13CCN(CCc4cscn4)CC[C@@]1(O)[C@@H](C2)N(CC1CC1)CC3` in the records?
Solution: 0.04 nM

Problem: Which value of EC50 has been reported for `C[Si]1(C)CCN(CC(=O)N2CC[C@]34CCN(CC5CC5)[C@H](Cc5ccc(O)cc53)[C@]4(O)CC2)CC1` in the records?
Solution: 0.16 nM
